From: ChEMBL document CHEMBL1130417

# EXPERIMENTAL_SYSTEM: Opioid receptors; mu & delta (Rattus norvegicus) (UniProt P33533+P33535)
# Sequence (P33533 whole entry, looked up): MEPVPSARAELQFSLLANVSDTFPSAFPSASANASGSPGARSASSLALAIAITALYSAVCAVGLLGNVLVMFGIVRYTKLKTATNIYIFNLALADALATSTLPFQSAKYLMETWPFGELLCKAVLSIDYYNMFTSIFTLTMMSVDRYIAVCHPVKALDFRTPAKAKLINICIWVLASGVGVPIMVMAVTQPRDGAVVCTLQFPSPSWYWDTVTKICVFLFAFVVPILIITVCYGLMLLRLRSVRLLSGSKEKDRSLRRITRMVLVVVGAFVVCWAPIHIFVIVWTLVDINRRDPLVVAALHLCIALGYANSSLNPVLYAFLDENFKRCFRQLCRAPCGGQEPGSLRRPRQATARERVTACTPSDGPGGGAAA
# Sequence (P33535 whole entry, looked up): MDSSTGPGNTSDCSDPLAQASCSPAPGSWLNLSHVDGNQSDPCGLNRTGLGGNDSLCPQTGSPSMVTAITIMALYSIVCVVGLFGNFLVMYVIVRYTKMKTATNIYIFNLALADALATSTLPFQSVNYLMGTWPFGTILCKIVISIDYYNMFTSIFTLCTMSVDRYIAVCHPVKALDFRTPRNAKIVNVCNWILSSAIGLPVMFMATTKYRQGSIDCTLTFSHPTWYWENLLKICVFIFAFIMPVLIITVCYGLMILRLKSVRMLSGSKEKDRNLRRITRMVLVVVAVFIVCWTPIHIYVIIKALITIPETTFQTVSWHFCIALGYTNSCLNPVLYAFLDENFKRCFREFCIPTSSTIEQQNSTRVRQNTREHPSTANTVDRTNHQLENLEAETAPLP
# MEASUREMENT_PROTOCOL: Mu/delta inhibitory ratio of compound determined Rat brain receptors
OBSERVATION_TYPE: Ratio

## Input Check the records and state Ratio for C=CCN1C[C@H](C)N([C@@H](c2ccccc2)c2ccc(C(=O)N(CC)CC)cc2)C[C@H]1C (stereo in doubt; (-)-22)
## Output > 11.7

## Input Check the records and state Ratio for C=CCN1C[C@H](C)N([C@@H](c2ccc(C(=O)N(CC)CC)cc2)c2cccc(I)c2)C[C@H]1C
## Output 82.2

## Input Check the records and state Ratio for C=CCN1C[C@@H](C)N([C@H](c2ccc(C(=O)N(CC)CC)cc2)c2cccc(F)c2)C[C@@H]1C (single isomer, unassigned)
## Output > 2110

* * *

OBSERVATION_TYPE: pIC50
The value called pIC50 is obtained by taking minus log10 of the concentration in mol/L.

## Input Quote Mu-type opioid receptor (Rattus norvegicus, UniProt P33535) pIC50 for entry C=CCN1C[C@H](C)N([C@@H](c2ccc(C(=O)N(CC)CC)cc2)c2cccc(OC)c2)C[C@H]1C (stereo in doubt; (+)-25) .
## Output 5.24

## Input Quote Mu-type opioid receptor (Rattus norvegicus, UniProt P33535) pIC50 for entry C=CCN1C[C@H](C)N([C@H](c2ccc(C(=O)N(CC)CC)cc2)c2cccc(I)c2)C[C@H]1C .
## Output 5.91

* * *

# EXPERIMENTAL_SYSTEM: Mu-type opioid receptor (Cavia porcellus, UniProt P97266)
# Sequence (P97266 whole entry): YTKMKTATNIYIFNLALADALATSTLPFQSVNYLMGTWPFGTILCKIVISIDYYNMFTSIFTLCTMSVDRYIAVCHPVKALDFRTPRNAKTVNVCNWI
# MEASUREMENT_PROTOCOL: Agonist activity was evaluated in guinea pig ileum (GPI) preparations at Opioid receptor mu 1
OBSERVATION_TYPE: IC50

## Input Check the records and state IC50 for C=CCN1C[C@H](C)N([C@H](c2ccc(C(=O)N(CC)CC)cc2)c2cccc(I)c2)C[C@H]1C
## Output > 3000 nM

## Input Check the records and state IC50 for CC(NC(=O)[C@@H](N)Cc1ccc(O)cc1)C(=O)N[C@@H](Cc1ccccc1)C(=O)N[C@@H](CC(=O)O)C(=O)N[C@H](C(=O)N[C@H](C(=O)NCC(N)=O)C(C)C)C(C)C (single isomer, unassigned)
## Output 15000 nM

## Input Check the records and state IC50 for C=CCN1C[C@H](C)N([C@@H](c2ccc(C(=O)N(CC)CC)cc2)c2cccc(OC)c2)C[C@H]1C (stereo in doubt; (-)-25)
## Output 1520 nM

## Input Check the records and state IC50 for C=CCN1C[C@H](C)N([C@H](c2ccccc2)c2ccc(C(=O)N(CC)CC)cc2)C[C@H]1C (stereo in doubt; (-)-26)
## Output 1780 nM

## Input Check the records and state IC50 for C=CCN1C[C@H](C)N([C@@H](c2ccccc2)c2ccc(C(=O)N(CC)CC)cc2)C[C@H]1C (stereo in doubt; (+)-22)
## Output 8580 nM

## Input Check the records and state IC50 for C=CCN1C[C@H](C)N([C@H](c2ccc(C(=O)N(CC)CC)cc2)c2cccc(F)c2)C[C@H]1C (stereo in doubt; (+)-23)
## Output 2600 nM

* * *

Task for the reader: assign each of the following compounds its reported Ratio.
# EXPERIMENTAL_SYSTEM: Opioid receptors; mu & delta (Rattus norvegicus) (UniProt P33533+P33535)
# MEASUREMENT_PROTOCOL: Mu/delta inhibitory ratio of compound determined Rat brain receptors

## Input Check the records and state Ratio for C=CCN1C[C@H](C)N([C@H](c2ccccc2)c2ccc(C(=O)N(CC)CC)cc2)C[C@H]1C (stereo in doubt; (-)-26)
## Output > 916

## Input Check the records and state Ratio for C=CCN1C[C@H](C)N([C@H](c2ccccc2)c2ccc(C(=O)N(CC)CC)cc2)C[C@H]1C (stereo in doubt; (+)-26)
## Output > 167

## Input Check the records and state Ratio for C=CCN1C[C@H](C)N([C@H](c2ccc(C(=O)N(CC)CC)cc2)c2cccc(F)c2)C[C@H]1C (stereo in doubt; (+)-23)
## Output 677

## Input Check the records and state Ratio for C=CCN1C[C@H](C)N([C@H](c2ccc(C(=O)N(CC)CC)cc2)c2cccc(F)c2)C[C@H]1C (stereo in doubt; (-)-23)
## Output > 7.3

## Input Check the records and state Ratio for C=CCN1C[C@H](C)N([C@@H](c2ccc(C(=O)N(CC)CC)cc2)c2cccc(F)c2)C[C@H]1C
## Output > 160

## Input Check the records and state Ratio for C=CCN1C[C@H](C)N([C@H](c2ccc(C(=O)N(CC)CC)cc2)c2cccc(I)c2)C[C@H]1C
## Output 314

## Input Check the records and state Ratio for C=CCN1C[C@H](C)N([C@@H](c2ccccc2)c2ccc(C(=O)N(CC)CC)cc2)C[C@H]1C (stereo in doubt; (+)-22)
## Output > 2660

* * *

# EXPERIMENTAL_SYSTEM: Delta-type opioid receptor (Rattus norvegicus, UniProt P33533)
# MEASUREMENT_PROTOCOL: Inhibition of radioligand [3H]DADLE binding to rat brain Opioid receptor delta 1
OBSERVATION_TYPE: IC50

## Input Check the records and state IC50 for C=CCN1C[C@H](C)N([C@H](c2ccccc2)c2ccc(C(=O)N(CC)CC)cc2)C[C@H]1C (stereo in doubt; (-)-26)
## Output 9.22 nM

## Input Check the records and state IC50 for C=CCN1C[C@H](C)N([C@H](c2ccc(C(=O)N(CC)CC)cc2)c2cccc(F)c2)C[C@H]1C (stereo in doubt; (+)-23)
## Output 2.92 nM

## Input Check the records and state IC50 for C=CCN1C[C@@H](C)N([C@H](c2ccc(C(=O)N(CC)CC)cc2)c2cccc(F)c2)C[C@@H]1C (single isomer, unassigned)
## Output 4.75 nM

## Input Check the records and state IC50 for C=CCN1C[C@H](C)N([C@@H](c2ccc(C(=O)N(CC)CC)cc2)c2cccc(F)c2)C[C@H]1C
## Output 62.5 nM

* * *

Task for the reader: assign each of the following compounds its reported pIC50.
The value called pIC50 is obtained by taking minus log10 of the concentration in mol/L.

## Input Quote Mu-type opioid receptor (Rattus norvegicus, UniProt P33535) pIC50 for entry C=CCN1C[C@H](C)N([C@H](c2ccc(C(=O)N(CC)CC)cc2)c2cccc(F)c2)C[C@H]1C (stereo in doubt; (+)-23) .
## Output 5.70

## Input Quote Mu-type opioid receptor (Rattus norvegicus, UniProt P33535) pIC50 for entry C=CCN1C[C@H](C)N([C@@H](c2ccc(C(=O)N(CC)CC)cc2)c2cccc(I)c2)C[C@H]1C .
## Output 5.47

* * *

# EXPERIMENTAL_SYSTEM: Delta-type opioid receptor (Rattus norvegicus, UniProt P33533)
# MEASUREMENT_PROTOCOL: Inhibition of radioligand [3H]DADLE binding to rat brain Opioid receptor delta 1
Task for the reader: assign each of the following compounds its reported IC50.
Include the unit after the number when you answer.

## Input Check the records and state IC50 for C=CCN1C[C@H](C)N([C@H](c2ccc(C(=O)N(CC)CC)cc2)c2cccc(F)c2)C[C@H]1C (stereo in doubt; (-)-23)
## Output 1380 nM

## Input Check the records and state IC50 for C=CCN1C[C@H](C)N([C@H](c2ccccc2)c2ccc(C(=O)N(CC)CC)cc2)C[C@H]1C (stereo in doubt; (+)-26)
## Output 60 nM

## Input Check the records and state IC50 for C=CCN1C[C@H](C)N([C@@H](c2ccccc2)c2ccc(C(=O)N(CC)CC)cc2)C[C@H]1C (stereo in doubt; (+)-22)
## Output 0.94 nM

* * *

# EXPERIMENTAL_SYSTEM: Delta-type opioid receptor (Rattus norvegicus)
# MEASUREMENT_PROTOCOL: Inhibition of radioligand [3H]DADLE binding to rat brain Opioid receptor delta 1
OBSERVATION_TYPE: pIC50
The value called pIC50 is obtained by taking minus log10 of the concentration in mol/L.

## Input Quote Delta-type opioid receptor (Rattus norvegicus) pIC50 for entry C=CCN1C[C@H](C)N([C@@H](c2ccc(C(=O)N(CC)CC)cc2)c2cccc(O)c2)C[C@H]1C .
## Output 7.94

## Input Quote Delta-type opioid receptor (Rattus norvegicus) pIC50 for entry C=CCN1C[C@@H](C)N([C@H](c2ccc(C(=O)N(CC)CC)cc2)c2cccc(O)c2)C[C@@H]1C (single isomer, unassigned) .
## Output 8.76

## Input Quote Delta-type opioid receptor (Rattus norvegicus) pIC50 for entry C=CCN1C[C@H](C)N([C@H](c2ccc(C(=O)N(CC)CC)cc2)c2cccc(O)c2)C[C@H]1C (stereo in doubt; (+)-1) .
## Output 8.83

## Input Quote Delta-type opioid receptor (Rattus norvegicus) pIC50 for entry C=CCN1C[C@H](C)N([C@H](c2ccc(C(=O)N(CC)CC)cc2)c2cccc(O)c2)C[C@H]1C (stereo in doubt; (-)-1) .
## Output 7.23

## Input Quote Delta-type opioid receptor (Rattus norvegicus) pIC50 for entry C=CCN1C[C@H](C)N([C@@H](c2ccc(C(=O)N(CC)CC)cc2)c2cccc(I)c2)C[C@H]1C .
## Output 7.39

## Input Quote Delta-type opioid receptor (Rattus norvegicus) pIC50 for entry C=CCN1C[C@H](C)N([C@@H](c2ccccc2)c2ccc(C(=O)N(CC)CC)cc2)C[C@H]1C (stereo in doubt; (-)-22) .
## Output 6.07

## Input Quote Delta-type opioid receptor (Rattus norvegicus) pIC50 for entry C=CCN1C[C@H](C)N([C@H](c2ccc(C(=O)N(CC)CC)cc2)c2cccc(I)c2)C[C@H]1C .
## Output 8.41
